# target system: Dopamine transporter (DAT) (Macaca fascicularis)
# Construct: in monkey striatum homogenates; from tissue; host or cells: monkey striatum homogenate
# method description: (3H)CFT competition binding in monkey striatum homogenates
# experimental setup: monkey striatum, 1 nM (3H)CFT, mean ± S.D.; read-out: Dopamine transporter (DAT) IC50
metric: IC50
Quote the value and follow it with the unit of measurement.

*Q* Given the compound COC(=O)[C@@H]1[C@H]2CC[C@H](C2)C[C@@H]1c1ccc(Cl)c(Cl)c1 (racemic) [Compound O-1391] , what is its reported IC50?
*A* 13.5 nM

*Q* Proceed to C=C(C)c1ccc(C2CC3CCC(O3)C2C(=O)OC)cc1 (racemic) [Compound O-1739]
*A* 1020 nM

*Q* Proceed to CC#Cc1ccc([C@H]2C[C@@H]3CC[C@@H](O3)[C@H]2C(=O)OC)cc1 (relative stereo) [Compound O-1577]
*A* 545 nM

*Q* Proceed to CC#Cc1ccc([C@@H]2C[C@@H]3CC[C@@H](O3)[C@H]2C(=O)OC)cc1 (relative stereo) [Compound O-1585]
*A* 446 nM

*Q* Proceed to C=C(C)c1ccc(C2CC3CCC(O3)C2C(=O)OC)cc1 (single isomer, unassigned) [Compound O-1809]
*A* 1010 nM

*Q* Proceed to C=C(C)c1ccc([C@@H]2C[C@@H]3CC[C@@H](O3)[C@H]2C(=O)OC)cc1 (relative stereo) [Compound O-1738]
*A* 912 nM

*Q* Proceed to COC(=O)C1C(c2ccc3ccccc3c2)CC2CCC1N2C (stereo not shown) [Compound O-1228]
*A* 0.57 nM

----------
# target system: human SERT (Homo sapiens, UniProt P31645)
# Construct: expressed in transfected cells; host or cells: HEK-293 (stably or transiently transfected, pcDNA3.1 vector)
# Sequence (P31645 whole entry): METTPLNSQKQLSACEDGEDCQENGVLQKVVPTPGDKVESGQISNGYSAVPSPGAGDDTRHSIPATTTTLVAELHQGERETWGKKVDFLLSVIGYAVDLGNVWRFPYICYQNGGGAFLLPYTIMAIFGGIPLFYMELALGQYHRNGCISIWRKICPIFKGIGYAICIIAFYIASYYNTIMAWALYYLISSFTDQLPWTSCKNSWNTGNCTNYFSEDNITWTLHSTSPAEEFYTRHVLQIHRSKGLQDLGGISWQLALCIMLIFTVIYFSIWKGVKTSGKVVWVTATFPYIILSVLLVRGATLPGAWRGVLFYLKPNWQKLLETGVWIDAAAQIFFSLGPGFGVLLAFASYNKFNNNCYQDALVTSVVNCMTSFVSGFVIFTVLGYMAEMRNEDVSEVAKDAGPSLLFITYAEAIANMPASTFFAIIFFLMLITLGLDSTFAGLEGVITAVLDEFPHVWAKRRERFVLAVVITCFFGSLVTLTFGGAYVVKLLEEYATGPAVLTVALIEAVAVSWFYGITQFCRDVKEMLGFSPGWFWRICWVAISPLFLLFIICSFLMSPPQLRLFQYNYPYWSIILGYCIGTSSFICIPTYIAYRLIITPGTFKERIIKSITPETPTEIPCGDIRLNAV
# method description: (3H)serotonin transport in HEK-293 cells transfected with the human SERT
# Type: cell-based
# experimental setup: (3H)serotonin transport Ki, HEK-293 cells with human SERT, 20 nM (3H)serotonin, mean ± S.E.M.
metric: log10 of Ki (log10 of the value in nM)
Please keep in mind that the values are log10 of Ki expressed in nM.

*Q* Value wanted: log10 of Ki (human SERT (Homo sapiens, UniProt P31645)) of entry C=C(C)c1ccc(C2CC3CCC(O3)C2C(=O)OC)cc1 (racemic) [Compound O-1739]
*A* 1.52

*Q* Proceed to COC(=O)[C@H]1[C@@H](c2ccc3ccccc3c2)C[C@@H]2CC[C@H]1N2C (relative stereo) [Compound O-1229]
*A* -0.85

*Q* Proceed to COC(=O)[C@@H]1[C@H]2CC[C@H](C2)C[C@@H]1c1ccc2ccccc2c1 (relative stereo) [Compound O-1669]
*A* 1.45

*Q* Proceed to CC#Cc1ccc([C@H]2C[C@@H]3CC[C@@H](O3)[C@H]2C(=O)OC)cc1 (relative stereo) [Compound O-1577]
*A* 1.80

*Q* Proceed to COC(=O)[C@@H]1[C@H]2CC[C@H](C2)C[C@@H]1c1ccc(Cl)c(Cl)c1 (racemic) [Compound O-1391]
*A* 1.05

*Q* Proceed to C=C(C)c1ccc(C2CC3CCC(O3)C2C(=O)OC)cc1 (single isomer, unassigned) [Compound O-1809]
*A* 1.20

*Q* Proceed to CC#Cc1ccc([C@@H]2C[C@@H]3CC[C@@H](O3)[C@H]2C(=O)OC)cc1 (relative stereo) [Compound O-1585]
*A* 1.75

*Q* Proceed to C=C(C)c1ccc([C@@H]2C[C@@H]3CC[C@@H](O3)[C@H]2C(=O)OC)cc1 (relative stereo) [Compound O-1738]
*A* 2.58

----------
Answer each item with its documented pIC50.
# target system: Dopamine transporter (DAT) (Macaca fascicularis, UniProt Q9GJT6)
# Construct: in monkey striatum homogenates; from tissue; host or cells: monkey striatum homogenate
# Sequence (Q9GJT6 whole entry): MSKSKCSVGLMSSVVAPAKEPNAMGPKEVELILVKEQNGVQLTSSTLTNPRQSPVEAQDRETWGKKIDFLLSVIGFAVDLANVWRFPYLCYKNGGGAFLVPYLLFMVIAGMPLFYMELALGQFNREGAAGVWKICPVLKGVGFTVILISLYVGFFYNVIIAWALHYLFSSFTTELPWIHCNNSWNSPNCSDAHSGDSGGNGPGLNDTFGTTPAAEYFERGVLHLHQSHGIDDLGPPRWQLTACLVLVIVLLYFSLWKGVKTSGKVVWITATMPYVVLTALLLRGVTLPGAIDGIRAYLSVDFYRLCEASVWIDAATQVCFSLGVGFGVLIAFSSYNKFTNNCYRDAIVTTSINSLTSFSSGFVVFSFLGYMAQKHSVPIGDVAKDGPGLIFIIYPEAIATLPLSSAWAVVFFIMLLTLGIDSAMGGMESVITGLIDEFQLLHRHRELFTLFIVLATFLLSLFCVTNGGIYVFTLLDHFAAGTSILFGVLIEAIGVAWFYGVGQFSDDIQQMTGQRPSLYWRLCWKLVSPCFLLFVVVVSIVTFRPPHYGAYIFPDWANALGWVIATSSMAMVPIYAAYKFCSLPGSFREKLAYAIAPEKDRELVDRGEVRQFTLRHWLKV
# method description: (3H)CFT competition binding in monkey striatum homogenates
# pIC50 is unitless: minus log10 of the molar concentration; print number only

*Q* Given the compound COC(=O)[C@@H]1[C@H]2CC[C@H](C2)C[C@@H]1c1ccc2ccccc2c1 (relative stereo) , what is its reported pIC50?
*A* 7.57

*Q* Proceed to COC(=O)[C@H]1[C@@H](c2ccc(Cl)c(Cl)c2)C[C@@H]2CC[C@H]1O2 (relative stereo)
*A* 8.41

*Q* Proceed to COC(=O)[C@@H]1[C@H]2CC[C@H](C2)C[C@H]1c1ccc2ccccc2c1 (relative stereo)
*A* 7.67

*Q* Proceed to COC(=O)[C@H]1[C@@H](c2ccc3ccccc3c2)C[C@@H]2CC[C@H]1N2C (relative stereo)
*A* 9.31

----------
# target system: human SERT (Homo sapiens, UniProt P31645)
# Construct: expressed in transfected cells; host or cells: HEK-293 (stably or transiently transfected, pcDNA3.1 vector)
# method description: (3H)citalopram binding in HEK-293 cells transfected with the human SERT
Criterion: Ki strictly less than 20 nM. Met: condition met. Not met: condition not met.

*Q* Find out if reported Ki for C=C(C)c1ccc([C@@H]2C[C@@H]3CC[C@@H](O3)[C@H]2C(=O)OC)cc1 (relative stereo) is less than 20 nM
*A* condition not met

*Q* Proceed to C=C(C)c1ccc(C2CC3CCC(O3)C2C(=O)OC)cc1 (single isomer, unassigned) [Compound O-1809]
*A* condition met

*Q* Proceed to COC(=O)[C@H]1[C@@H](c2ccc3ccccc3c2)C[C@@H]2CC[C@H]1N2C (relative stereo)
*A* condition met

*Q* Proceed to COC(=O)[C@@H]1[C@H]2CC[C@H](C2)C[C@@H]1c1ccc(Cl)c(Cl)c1 (racemic)
*A* condition met

*Q* Proceed to CC#Cc1ccc([C@H]2C[C@@H]3CC[C@@H](O3)[C@H]2C(=O)OC)cc1 (relative stereo)
*A* condition not met

*Q* Proceed to COC(=O)[C@@H]1[C@H]2CC[C@H](C2)C[C@@H]1c1ccc2ccccc2c1 (relative stereo)
*A* condition not met

*Q* Proceed to CC#Cc1ccc([C@@H]2C[C@@H]3CC[C@@H](O3)[C@H]2C(=O)OC)cc1 (relative stereo)
*A* condition not met

*Q* Proceed to C=C(C)c1ccc(C2CC3CCC(O3)C2C(=O)OC)cc1 (racemic) [Compound O-1739]
*A* condition met

----------
# target system: human SERT (Homo sapiens)
# Construct: expressed in transfected cells; host or cells: HEK-293 (stably or transiently transfected, pcDNA3.1 vector)
# method description: (3H)citalopram binding in HEK-293 cells transfected with the human SERT
# experimental setup: HEK-293 cells with human SERT, 1 nM (3H)citalopram, mean ± S.E.M.; read-out: (3H)citalopram binding Ki
Answer each item with its documented Ki.
Quote the value and follow it with the unit of measurement.

*Q* Given the molecule COC(=O)[C@@H]1[C@H]2CC[C@H](C2)C[C@H]1c1ccc2ccccc2c1 (relative stereo) , what is its reported Ki?
*A* 303 nM

*Q* Proceed to COC(=O)C1C(c2ccc3ccccc3c2)CC2CCC1N2C (centres unmarked)
*A* 3.26 nM

----------
# target system: Serotonin transporter (SERT) (Macaca mulatta, UniProt Q9MYX0)
# Sequence (Q9MYX0 whole entry): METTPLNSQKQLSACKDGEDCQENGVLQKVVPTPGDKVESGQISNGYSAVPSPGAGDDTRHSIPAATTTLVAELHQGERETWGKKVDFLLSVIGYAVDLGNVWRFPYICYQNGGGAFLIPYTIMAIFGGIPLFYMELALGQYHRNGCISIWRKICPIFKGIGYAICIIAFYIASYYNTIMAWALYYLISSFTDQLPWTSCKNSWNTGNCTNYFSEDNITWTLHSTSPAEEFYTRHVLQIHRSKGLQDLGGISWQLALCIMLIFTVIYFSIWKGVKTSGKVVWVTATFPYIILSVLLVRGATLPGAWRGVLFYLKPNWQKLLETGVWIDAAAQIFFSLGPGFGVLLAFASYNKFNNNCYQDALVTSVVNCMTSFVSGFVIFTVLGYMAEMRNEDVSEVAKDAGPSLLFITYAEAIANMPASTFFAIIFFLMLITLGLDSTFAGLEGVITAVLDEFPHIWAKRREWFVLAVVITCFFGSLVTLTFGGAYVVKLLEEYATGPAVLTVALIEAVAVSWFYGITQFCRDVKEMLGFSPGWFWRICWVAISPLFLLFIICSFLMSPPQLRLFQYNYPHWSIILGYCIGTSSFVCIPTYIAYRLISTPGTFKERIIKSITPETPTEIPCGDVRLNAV
Answer each item with its documented pIC50.
# pIC50 is unitless: minus log10 of the molar concentration; print number only

*Q* Given the compound COC(=O)[C@@H]1[C@H]2CC[C@H](C2)C[C@@H]1c1ccc2ccccc2c1 (relative stereo) , what is its reported pIC50?
*A* 7.14

*Q* Proceed to C=C(C)c1ccc(C2CC3CCC(O3)C2C(=O)OC)cc1 (racemic) [Compound O-1739]
*A* 7.70

*Q* Proceed to COC(=O)[C@@H]1[C@H]2CC[C@H](C2)C[C@@H]1c1ccc(Cl)c(Cl)c1 (racemic)
*A* 7.47

*Q* Proceed to COC(=O)[C@@H]1[C@H]2CC[C@H](C2)C[C@H]1c1ccc2ccccc2c1 (relative stereo)
*A* 7.11

*Q* Proceed to COC(=O)[C@H]1[C@@H](c2ccc3ccccc3c2)C[C@@H]2CC[C@H]1N2C (relative stereo)
*A* 8.66

*Q* Proceed to C=C(C)c1ccc([C@@H]2C[C@@H]3CC[C@@H](O3)[C@H]2C(=O)OC)cc1 (relative stereo)
*A* 6.80

*Q* Proceed to COC(=O)[C@H]1[C@@H](c2ccc(Cl)c(Cl)c2)C[C@@H]2CC[C@H]1O2 (relative stereo)
*A* 8.33

*Q* Proceed to CC#Cc1ccc([C@@H]2C[C@@H]3CC[C@@H](O3)[C@H]2C(=O)OC)cc1 (relative stereo)
*A* 6.82

*Q* Proceed to C=C(C)c1ccc(C2CC3CCC(O3)C2C(=O)OC)cc1 (single isomer, unassigned) [Compound O-1809]
*A* 7.99

*Q* Proceed to CC#Cc1ccc([C@H]2C[C@@H]3CC[C@@H](O3)[C@H]2C(=O)OC)cc1 (relative stereo)
*A* 7.14
